# run.description: AUC (infinity) in Sprague-Dawley rat plasma at 1 mg/kg, po administered as single dose by LC-MS/MS analysis
# Type: ADME, organism-based
# Set-up: dose 1 mg/kg, time infinity, route oral
measurement.name: AUC(0-inf) (ng·h/mL)
Report the figure in ng·h/mL without appending any unit label.

[ask] Please report the recorded AUC(0-inf) for Cc1cc([C@@H]2CN(C(=O)c3ccc(F)c(Br)c3)CC(F)(F)C2)n2ncnc2n1 .
[reply] 442

---

# run.description: Solubility of the compound
# Format: physicochemical
solubility values for the compounds below.
Report the figure in µg/mL without appending any unit label.

| compound | solubility [µg/mL] |
| --- | --- |
| COc1ccc(C(=O)N2CCCC(c3cc(C)nc4ncnn34)C2)cc1C (stereo not given) | 36 |
| Cc1cc(N2CCCC(C(=O)Nc3ccc4c(c3)CCC4)C2)n2ncnc2n1 (stereo not given) | 49 |
| Cc1cc(C2CCCN(C(=O)c3ccc4ncccc4c3)C2)n2ncnc2n1 (stereo not given) | 47 |
| COc1cc(Cl)ccc1NC(=O)C1CCCN(c2cc(C)nc3ncnn23)C1 (stereo not given) | 45 |

[ask] Please report the recorded solubility for Cc1cc(N2CCCC(C(=O)Nc3ccc4ccccc4c3)C2)n2ncnc2n1 (stereo not given) .
[reply] 13
